Molecular target: α-synuclein (UniProt P37840 1-140); note: test concentration or dose not given here
Assay: cell-based or functional assay
Non-standard residues stand in square brackets, D forms with d.
measure.name: % increase in Lag phase (%)

Ac-[dH][dH][dT][dV][dV][dA]-NH2 (SMILES CC(=O)N[C@H](Cc1c[nH]cn1)C(=O)N[C@H](Cc1c[nH]cn1)C(=O)N[C@@H](C(=O)N[C@@H](C(=O)N[C@@H](C(=O)N[C@H](C)C(N)=O)C(C)C)C(C)C)[C@H](C)O) [ZP-0180] ... 30.3
Ac-[dH][dH][dT][dI][dV][dK]-NH2 (SMILES CC[C@@H](C)[C@@H](NC(=O)[C@H](NC(=O)[C@@H](Cc1c[nH]cn1)NC(=O)[C@@H](Cc1c[nH]cn1)NC(C)=O)[C@H](C)O)C(=O)N[C@@H](C(=O)N[C@H](CCCCN)C(N)=O)C(C)C) [ZP-0179] ... 30.4
Ac-[dQ][dY][dS][dV][dP][dI]-NH2 (SMILES CC[C@@H](C)[C@@H](NC(=O)[C@H]1CCCN1C(=O)[C@H](NC(=O)[C@@H](CO)NC(=O)[C@@H](Cc1ccc(O)cc1)NC(=O)[C@@H](CCC(N)=O)NC(C)=O)C(C)C)C(N)=O) [ZP-0204] ... 23.6
Ac-[dE][dK][dY][dS][dV][dL][dI]-NH2 (SMILES CC[C@@H](C)[C@@H](NC(=O)[C@@H](CC(C)C)NC(=O)[C@H](NC(=O)[C@@H](CO)NC(=O)[C@@H](Cc1ccc(O)cc1)NC(=O)[C@@H](CCCCN)NC(=O)[C@@H](CCC(=O)O)NC(C)=O)C(C)C)C(N)=O) [ZP-0213] ... 29.4

I: Ac-[dQ][dY][dS][dP][dL][dI]-NH2 (SMILES CC[C@@H](C)[C@@H](NC(=O)[C@@H](CC(C)C)NC(=O)[C@H]1CCCN1C(=O)[C@@H](CO)NC(=O)[C@@H](Cc1ccc(O)cc1)NC(=O)[C@@H](CCC(N)=O)NC(C)=O)C(N)=O) [ZP-0205]
II: Ac-[dH][dH][dT][dI][dV][dV]-NH2 (SMILES CC[C@@H](C)[C@@H](NC(=O)[C@H](NC(=O)[C@@H](Cc1c[nH]cn1)NC(=O)[C@@H](Cc1c[nH]cn1)NC(C)=O)[C@H](C)O)C(=O)N[C@@H](C(=O)N[C@@H](C(N)=O)C(C)C)C(C)C) [ZP-0175]
// returns I or II , whichever has the lower % increase in Lag phase Answer by quoting the chosen item's label.
I
(I: 30.6%, II: 89.7%)
